ATTRIBUTE MEASURED: melting point

Look over these answered cases.
COMPOUND: COc1ccccc1-c1nnc(S)o1
melting point: 243 to 245 °C
//
COMPOUND: O=C(O)CNC(=O)c1cccc(Br)c1
melting point: 148 to 150 °C
//
COMPOUND: NNc1ncnc2sccc12
melting point: 211 to 213 °C
//
COMPOUND: Cc1cc(C(=O)O)c2c(C)nn(C)c2n1
melting point: 262 to 264 °C
//
COMPOUND: Cc1cc(O)c(C#N)c(C)n1
melting point: 301 to 303 °C
//
COMPOUND: O=[N+]([O-])c1ccn(C2CCCCC2O)n1 (stereo not drawn)
melting point: 94 to 96 °C
//
COMPOUND: Cc1cc(C(=O)O)c2c(CC(C)(C)C)noc2n1
melting point: 224 to 226 °C
//
COMPOUND: COc1ccc(OC)c(C(C)NC(=O)CCl)c1 (stereo not drawn)
melting point: 103 to 105 °C

Value of melting point reported for the compound `O=C(O)CNS(=O)(=O)c1ccc(N2CCCC2=O)cc1` is 130 to 132 °C

Value of melting point reported for the compound CC(Oc1ccc(Cl)c(Cl)c1)C(=O)O (stereo not drawn) is 125 to 127 °C

Value of melting point reported for the compound `Cc1nc2c(c(C)nn2C)c(C)c1CC(=O)O` is 245 to 247 °C

Value of melting point reported for the compound `COC(=O)c1cc2ccccc2nc1Cl` is 82 to 84 °C

Value of melting point reported for the compound `O=C1Nc2ccc(S(=O)(=O)Cl)cc2C1=O` is 184 to 186 °C
